Procedure Text: qHTS assay to identify small molecule agonists of the estrogen receptor beta (ER-beta) signaling pathway - cell viability counter screen (AID 1259380); also: nearly all actives have a fitted effect of over 30% in size; also: potency is read from the fitted curve at half-maximal effect
Test Parameters: ER-beta-bla HEK293T viability, CellTiter-Glo luminescence, 16 h; series mostly up to 92.4 µM
Results filed as inconclusive are left out. The source made the active and inactive calls. Calls follow the shape of the dose curve; as a rule, active = well fitted cell-killing curve with a large enough effect in the repeat runs; inconclusive = weak or mixed curves, or effect the other way; inactive = flat fitted curve, though single readings scatter.
Metric: Potency

Sample answers from the record:
C=CC(=O)OCCOCCOC(=O)C=C ... 24.4 µM (active)
CCCCCCCCCCO[C@@H]1O[C@H](CO)[C@@H](O)[C@H](O)[C@H]1O ... inactive
c1ccc(-c2ccccn2)nc1 ... inactive
C[N+]1(C)CCC(OC(=O)C(O)(c2ccccc2)C2CCCC2)C1 (stereo not drawn) ... inactive

Hi, could you look up Potency for each item in my list?
1. C[Si](C)(CCCN)O[Si](C)(C)CCCN
2. CN1Cc2cc(C(=O)N3CCC(C4CCNCC4)CC3)ccc2NC(CC(=O)O)C1=O (stereo not drawn)
3. OCCN1CCN(CCCN2c3ccccc3C=Cc3ccccc32)CC1
4. OC(CN1CCC(Cc2ccc(F)cc2)CC1)c1ccc(Cl)cc1 (stereo not drawn)
5. CCCCCCCCCCCc1ccccc1
6. O=C(O)c1ccco1
7. Cc1ccc(C(=O)Oc2ccc(C(O)CNC(C)(C)C)cc2OC(=O)c2ccc(C)cc2)cc1 (stereo not drawn)
8. C=CCOc1ccccc1OCC(O)CNC(C)C (stereo not drawn)

OUTPUT:
1. inactive
2. inactive
3. 5.31 µM (active)
4. inactive
5. inactive
6. inactive
7. 26.6 µM (active)
8. inactive

INPUT: I would be grateful if you could share the reported Potency for `C=C(C)C(=O)OCC` .
OUTPUT: inactive
